The entries below come with measured Kd values attached.
# Target Or System: T1, recombinant human CD3 epsilon/gamma heterodimer (human, UniProt P07766 23-126; P09693 23-116)
# T1 construct: Recombinant protein in solution (200-50 nM) in the Octet assay; also called hCD3 E/G
# T1 sequence (P07766 23-126, chain 1 of 2): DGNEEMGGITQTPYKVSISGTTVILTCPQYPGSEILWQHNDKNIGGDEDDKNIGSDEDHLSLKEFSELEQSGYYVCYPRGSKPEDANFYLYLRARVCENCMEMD
# T1 sequence (P09693 23-116, chain 2 of 2): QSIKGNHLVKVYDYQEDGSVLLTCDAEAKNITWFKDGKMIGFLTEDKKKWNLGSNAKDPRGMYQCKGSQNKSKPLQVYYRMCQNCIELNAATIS
# Measurement Notes: Octet BLI, mAb on FAB2G sensor, hCD3 E/G 200-50 nM; R^2 0.98
Give just the numeric value; µM need not be written.

Answered cases to consult:
ABL-CD3-52 (antibody, V domains shown, Chimeric hybridoma mAb: human V, CH1, upper hinge; mouse middle hinge, CH2, CH3) VH: EVQLVESGGGLVKPGGSLRLSCAASGFTFSYYSMNWVRQAPGKGLEWVSSISRSTTYIYYADSVKGRFTISRDNAKNSLYLQMNSLRAEDTAVYYCARDGKGAIFLDYWGQGTLVTVSS VL: SYELTQPPSVSVSPGQTARITCSGDALPKKYAYWYQQKSGQAPVLVIYEDSKRPSGIPERFSGSSSGTMATLTISGAQVEDEADYYCYSTDSSGNHRVFGGGTKLTVL; 0.233
ABL-CD3-49 (antibody, V domains shown, Chimeric hybridoma mAb: human V, CH1, upper hinge; mouse middle hinge, CH2, CH3) VH: EVQLVESGGGLVKPGGSLRLSCSASGFTFSTYTMNWVRQAPGKGLEWVSSISKSSSYIYYTDSVKGRFTISRDNAKNSLYLQMNSLRAEDTAVYYCARERRTLAFDIWGQGTMVTVSS VL: NFMLTQPHSVSESPGKTVTISCTRSSGSIASNYVQWYQQRPGSSPTTVIYEDNQRSSGVPDRFSGSIDSSSNSASLTISGLKTEDEADYYCQCYDRSNRVFGGGTKLTVL; 0.0114

# input for lookup
Note Kd for the binder shown: ABL-CD3-51 (antibody, V domains shown, Chimeric hybridoma mAb: human V, CH1, upper hinge; mouse middle hinge, CH2, CH3) VH: EVQLVESGGGLVKPGGSLRLSCAASGFTFSSYSMNWVRQAPGKGLEWVSSISRSSSYIYYADSVKGRFTISRDNAKNSLYLQMNSLRAEDTAVYYCARERWELLYFDYWGQGTLVTVSS VL: NFMLTQPHSVSESPGKTVTISCTRSSGSIASNYVQWYQQRPGSSPTTVIYEDNQRPSGVPDRFSGSIDSSSNSASLTISGLKTEDEADYYCQSYDSSNRVFGGGTKLTVL
0.233
